Parameter pIC50: see the listing below.
Biological target: TcdA (Clostridioides difficile, UniProt P16154)
Sequence (P16154 whole entry, looked up): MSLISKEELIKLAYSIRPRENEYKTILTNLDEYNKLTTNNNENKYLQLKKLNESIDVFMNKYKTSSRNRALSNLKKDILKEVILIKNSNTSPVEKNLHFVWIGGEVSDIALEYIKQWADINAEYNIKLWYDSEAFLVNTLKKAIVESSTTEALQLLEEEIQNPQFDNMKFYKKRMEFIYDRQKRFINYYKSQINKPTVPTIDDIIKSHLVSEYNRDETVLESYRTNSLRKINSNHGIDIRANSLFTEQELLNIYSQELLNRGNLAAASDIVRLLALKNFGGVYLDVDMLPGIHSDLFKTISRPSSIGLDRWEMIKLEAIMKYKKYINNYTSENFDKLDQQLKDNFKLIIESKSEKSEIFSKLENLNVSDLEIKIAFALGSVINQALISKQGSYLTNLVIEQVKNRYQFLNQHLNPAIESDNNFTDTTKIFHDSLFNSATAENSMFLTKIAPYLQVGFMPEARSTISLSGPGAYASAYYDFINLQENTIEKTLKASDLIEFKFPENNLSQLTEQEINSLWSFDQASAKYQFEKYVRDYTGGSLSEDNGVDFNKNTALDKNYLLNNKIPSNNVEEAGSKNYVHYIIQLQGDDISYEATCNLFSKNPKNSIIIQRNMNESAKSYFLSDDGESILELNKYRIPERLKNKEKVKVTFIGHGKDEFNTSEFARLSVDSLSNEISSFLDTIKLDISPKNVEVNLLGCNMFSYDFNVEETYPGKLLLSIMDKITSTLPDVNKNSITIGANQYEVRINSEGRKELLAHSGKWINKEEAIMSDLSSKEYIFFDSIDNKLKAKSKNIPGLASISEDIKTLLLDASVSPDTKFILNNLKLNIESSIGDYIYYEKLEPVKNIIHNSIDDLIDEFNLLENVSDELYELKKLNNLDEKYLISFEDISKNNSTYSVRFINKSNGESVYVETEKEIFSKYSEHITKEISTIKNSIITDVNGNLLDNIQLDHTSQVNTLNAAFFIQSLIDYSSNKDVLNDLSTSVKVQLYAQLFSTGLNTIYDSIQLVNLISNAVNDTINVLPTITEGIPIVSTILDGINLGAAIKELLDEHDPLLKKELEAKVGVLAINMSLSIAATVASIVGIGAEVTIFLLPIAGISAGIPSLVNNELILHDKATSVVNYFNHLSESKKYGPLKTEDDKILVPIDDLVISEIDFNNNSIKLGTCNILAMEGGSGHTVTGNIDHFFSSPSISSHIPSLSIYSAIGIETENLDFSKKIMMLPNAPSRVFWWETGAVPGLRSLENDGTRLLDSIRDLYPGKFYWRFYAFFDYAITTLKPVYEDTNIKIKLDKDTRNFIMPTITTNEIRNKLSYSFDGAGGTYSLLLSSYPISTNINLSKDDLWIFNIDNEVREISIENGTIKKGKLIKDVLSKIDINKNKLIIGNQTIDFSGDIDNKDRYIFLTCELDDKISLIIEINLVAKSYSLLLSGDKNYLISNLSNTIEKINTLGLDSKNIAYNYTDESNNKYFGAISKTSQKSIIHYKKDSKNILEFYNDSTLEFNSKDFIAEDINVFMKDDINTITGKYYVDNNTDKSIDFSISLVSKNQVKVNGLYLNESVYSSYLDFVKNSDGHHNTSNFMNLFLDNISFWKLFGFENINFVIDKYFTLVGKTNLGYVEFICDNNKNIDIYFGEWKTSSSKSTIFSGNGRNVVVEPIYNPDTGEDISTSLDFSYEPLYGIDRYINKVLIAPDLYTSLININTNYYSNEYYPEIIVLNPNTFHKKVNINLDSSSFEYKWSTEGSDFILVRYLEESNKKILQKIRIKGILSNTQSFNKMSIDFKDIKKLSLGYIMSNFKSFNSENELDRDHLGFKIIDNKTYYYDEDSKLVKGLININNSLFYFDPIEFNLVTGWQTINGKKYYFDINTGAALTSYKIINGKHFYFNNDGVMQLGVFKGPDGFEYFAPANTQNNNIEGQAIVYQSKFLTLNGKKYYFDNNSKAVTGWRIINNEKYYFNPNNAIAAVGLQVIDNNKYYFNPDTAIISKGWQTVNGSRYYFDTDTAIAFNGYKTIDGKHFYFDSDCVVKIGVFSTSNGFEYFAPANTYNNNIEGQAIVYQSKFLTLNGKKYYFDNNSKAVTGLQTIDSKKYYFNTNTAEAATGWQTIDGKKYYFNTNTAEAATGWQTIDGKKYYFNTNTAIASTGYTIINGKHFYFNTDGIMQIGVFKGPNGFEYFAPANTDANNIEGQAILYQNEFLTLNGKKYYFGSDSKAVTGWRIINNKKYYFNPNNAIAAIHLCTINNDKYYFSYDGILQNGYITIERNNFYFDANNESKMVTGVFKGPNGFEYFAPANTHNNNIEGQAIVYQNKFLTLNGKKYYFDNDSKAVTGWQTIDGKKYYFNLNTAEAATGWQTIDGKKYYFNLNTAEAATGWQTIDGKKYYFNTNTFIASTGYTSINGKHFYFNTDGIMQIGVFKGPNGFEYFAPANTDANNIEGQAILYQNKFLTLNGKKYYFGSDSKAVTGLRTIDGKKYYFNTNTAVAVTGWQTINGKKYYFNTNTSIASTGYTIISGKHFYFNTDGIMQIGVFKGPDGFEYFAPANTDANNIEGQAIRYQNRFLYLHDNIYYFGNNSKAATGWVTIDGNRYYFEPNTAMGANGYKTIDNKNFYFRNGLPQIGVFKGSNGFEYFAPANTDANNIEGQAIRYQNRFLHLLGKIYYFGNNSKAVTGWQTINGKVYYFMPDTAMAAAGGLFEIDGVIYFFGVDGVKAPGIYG
Assay: cell-based
Conditions: IC50 TcdA, means ± s.d.
Kindly note that pIC50 refers to -log10 of the concentration in mol/L and answer with the value alone.

[
  {
    "molecule": "O=C(Nc1ccc([N+](=O)[O-])cc1Cl)c1cc(Cl)ccc1O [NEN, niclosamide ethanolamine]",
    "pIC50": 6.26
  }
]

Kindly consider the entry below.
Query string: State pIC50 on TcdA (Clostridioides difficile, UniProt P16154). Entry: O=C(Nc1ccc([N+](=O)[O-])cc1Cl)c1cc(Cl)ccc1O [niclosamide]
Result string: 6.30
